- ASSAY SYSTEM: T1, peptide 29 (Plasmodium falciparum 3D7)
- T1 chain: NANPNANPNANPNAN
- EXPERIMENT NOTES: ELISA

BINDER	binding result
MGU12 (antibody, V domains shown) VH: QVQLVESGGGVVQPGRSLRLSCAASGFSFSSYGMHWVRQAPGKGPEWVAVIWHDGSYSYYADSVRGRFTISRDNSKNTLYLQMNSLRPEDTGMYHCVKVEDYVRGSSHGGAFHIWGQGTMVTVSS VL: DIQMTQSPSTLSASVGDRVTITCRASQTINNWLAWYQWKPGKAPELLIYKASSLESGVPSRFSGSGSGTEFTLTISSLQPDDFATYYCQQYSSYWTFGQGTKVDIK	binds
1210 (antibody, V domains shown) VH: QVQLVESGGGVVQPGRSLRLSCAASGFTFSNYGMHWVRQAPGKGLEWVAVIWYDGSKKYYADSVKGRFTISRDNSKNTLYLQMNSLRAEDTAVYYCARVRDSSDYYGDAFDIWGQGTMVTVSS VL: DIQMTQSPSTLSASVGDRVTITCRASQSISSWLAWYQQKPGKAPKLLIYKASNLESGVPLRFSGSGSGTEFTLTISSLQPDDFATYYCQQYNNYWTFGQGTKVEIK	binds
311 (antibody, V domains shown) VH: QVQLVESGGGVVPPGRSLRLSCATSGFTFSNYGMHWVRQAPGKGLEWVAIIWYDGSRNFYAASVEGRFTISRDNSKNTLYLQMNSLRVEDTAVYYCARAAYYDTSGYGDYWGQGTLVTVSS VL: QSVLTQPPSVSGAPGQTVTISCTGGSSNIGAGYDVHWYQQLPGTAPKLLIYGNINRPSGVPDRFSGSKSGTSASLAITGLQAEDEADYYCQSYDRRLSGSWVFGGGTKLTVL	binds
